System: F1*sub RNA substrate (template-directed ligation)
method: fraction ligated after 30 min (ligated reads / total reads); higher = more ligase activity; sequences stand for … in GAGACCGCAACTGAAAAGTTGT…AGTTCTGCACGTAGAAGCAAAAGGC
protocol conditions: 42 °C
# if value of fraction ligated reaches 0.08, tag rule met; if it stays below, tag rule not met

record sequence	qualitative label
TATACTTGTCAAGACACTTTGGATGGGTTGA [3d843]	rule met
TACACTTGTGTAAGACACTTTGGATGGGTTGA [2d53]	rule met
TATCACTTGCTAGACACTTTGGATGGGTTGA [3d1600]	rule met
TTCACTTCGTAAGACACTTTGGATGGGTTGA [3d337]	rule met
TATACTTGTGTAAACACTTTGGATGGGTTGA [3d831]	rule met
TATCACTTGCGTAAACACTTTGGAGGGTTGA [3d1645]	rule not met
TATCACTTGTCGTAAACACTTTGATGGGTTA [3d2092]	rule met
TATACTTGCGTAAGACACTTTGGATGGGTTA [3d826]	rule not met
TATCACTTGTGTAAGAACTTTGGATGGGTTA [3d1770]	rule met
TTCACTTGTCGTAAGACATTTGATGGGTTGA [3d478]	rule not met
TATCCTTGTCGAAGACCTTTGGATGGGTTGA [3d1033]	rule met

###

Tested on: F1*sub RNA substrate (template-directed ligation)
method: fraction ligated after 30 min (ligated reads / total reads); higher = more ligase activity; sequences stand for … in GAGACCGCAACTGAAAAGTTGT…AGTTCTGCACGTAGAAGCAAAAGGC
protocol conditions: 42 °C
Would you mind sorting the entries by fraction ligated according to these classes? low-valued (below 0.1), mid-valued (0.1 to below 0.8), high-valued (0.8 or more)

record sequence	assay system	qualitative label
ATCACTTGTCGTAAGACACTTTGGATGGGTTA [2d23]	F1*sub RNA substrate (template-directed ligation)	mid-valued
TATCCTTGTCGTAAGCACTTTGGAGGGTTGA [3d1071]	F1*sub RNA substrate (template-directed ligation)	low-valued
TATCACTTGTCGTAGAACTTTGGTGGGTTGA [3d2016]	F1*sub RNA substrate (template-directed ligation)	mid-valued
TATCACTTGCGAAGAACTTTGGATGGGTTGA [3d1616]	F1*sub RNA substrate (template-directed ligation)	high-valued
TTCATTGTCGTAAGACACTTTGGATGGGTTA [3d334]	F1*sub RNA substrate (template-directed ligation)	low-valued
TTCACTTGTCGTAAGACATTTGGATGGGTTG [3d483]	F1*sub RNA substrate (template-directed ligation)	mid-valued
TATCACTGTCGTAACACTTTGGATGGGTTGA [3d1386]	F1*sub RNA substrate (template-directed ligation)	high-valued
TATCACTTGTCGTAAGCACTTTGATGGGTTA [3d2139]	F1*sub RNA substrate (template-directed ligation)	mid-valued

###

Listed below: fraction ligated values for each entry.
Test system: F1*sub RNA substrate (template-directed ligation)
method: fraction ligated after 30 min (ligated reads / total reads); higher = more ligase activity
protocol conditions: 42 °C
reported endpoint: fraction ligated

record sequence	assay system	endpoint value
GAGACCGCAACTGAAAAGTTGTTATCACTTGTCTAAGACACTTTGGATGGGTTGGTTCTGCACGTAGAAGCAAAAGGC [3d1901]	F1*sub RNA substrate (template-directed ligation)	0.0966
GAGACCGCAACTGAAAAGTTGTTATCATTGTCGTAAGACACTTTGGATGGGTTGGTTCTGCACGTAGAAGCAAAAGGC [3d1292]	F1*sub RNA substrate (template-directed ligation)	0.00677
GAGACCGCAACTGAAAAGTTGTTATCACTTGTCGTAAGACATTTGGATGGGTTGGTTCTGCACGTAGAAGCAAAAGGC [3d2230]	F1*sub RNA substrate (template-directed ligation)	0.00375
GAGACCGCAACTGAAAAGTTGTTATCACTTGTCGTAAGACACTTTGGATGGGTTCGTTCTGCACGTAGAAGCAAAAGGC [s80]	F1*sub RNA substrate (template-directed ligation)	0.0169
GAGACCGCAACTGAAAAGTTGTATCACTTGTCGTAAGACACTTTGGATGGGTTGGTTCTGCACGTAGAAGCAAAAGGC [3d276]	F1*sub RNA substrate (template-directed ligation)	0.00404
GAGACCGCAACTGAAAAGTTGTTATCACTTGTCGTAAGACACTTTGGATGGGTTGGTTCTGCACGTAGAAGCAAAAGGC [2d299]	F1*sub RNA substrate (template-directed ligation)	0.02
GAGACCGCAACTGAAAAGTTGTTATCACTTGTCGTAAGACACTTTGGATGGGTTTGTTCTGCACGTAGAAGCAAAAGGC [s81]	F1*sub RNA substrate (template-directed ligation)	0.0148
GAGACCGCAACTGAAAAGTTGTTATACTTGTCGTAAGACACTTTGGATGGGTTGGTTCTGCACGTAGAAGCAAAAGGC [3d948]	F1*sub RNA substrate (template-directed ligation)	0
GAGACCGCAACTGAAAAGTTGTTATCACTTGTCGTAAGACCTTTGGATGGGTTGGTTCTGCACGTAGAAGCAAAAGGC [3d2206]	F1*sub RNA substrate (template-directed ligation)	0.0611
GAGACCGCAACTGAAAAGTTGTTACACTTGTCGTAAGACACTTTGGATGGGTTGGTTCTGCACGTAGAAGCAAAAGGC [3d737]	F1*sub RNA substrate (template-directed ligation)	0.00325
GAGACCGCAACTGAAAAGTTGTTATCACTTTCGTAAGACACTTTGGATGGGTTGGTTCTGCACGTAGAAGCAAAAGGC [3d1584]	F1*sub RNA substrate (template-directed ligation)	0.0193
GAGACCGCAACTGAAAAGTTGTTATCACTTGTCGAAGACACTTTGGATGGGTTGGTTCTGCACGTAGAAGCAAAAGGC [3d1980]	F1*sub RNA substrate (template-directed ligation)	0.102

###

Tested on: F1*sub RNA substrate (template-directed ligation)
method: fraction ligated after 30 min (ligated reads / total reads); higher = more ligase activity; sequences stand for … in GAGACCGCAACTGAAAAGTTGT…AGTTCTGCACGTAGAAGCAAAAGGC
protocol conditions: 42 °C
fraction ligated listing for selected sequences.

record sequence	assay system	fraction ligated
TTACTTGTCGTAGACACTTTGGATGGGTTGA [3d285]	F1*sub RNA substrate (template-directed ligation)	0.00592
TATCATTGTCGAAGACACTTTGGATGGGTTGA [2d114]	F1*sub RNA substrate (template-directed ligation)	0.798
TATCACTTGTCGTAAGACACTTGGTGGGTTGA [2d278]	F1*sub RNA substrate (template-directed ligation)	0.0691
TATCCTTGTCGAAGACACTTTGGATGGGTTGA [2d95]	F1*sub RNA substrate (template-directed ligation)	0.806
TATCACTTGTCTAAACACTTTGGTGGGTTGA [3d1841]	F1*sub RNA substrate (template-directed ligation)	0.116
TATCCTGTCGTAAGACATTTGGATGGGTTGA [3d960]	F1*sub RNA substrate (template-directed ligation)	0.766
TTCACTTTCGTAAGACACTTTGGATGGTTGA [3d368]	F1*sub RNA substrate (template-directed ligation)	0.0816
TATCACTTGTGAGACACTTTGGATGGGTTGA [3d1718]	F1*sub RNA substrate (template-directed ligation)	0.841
TATACTTGTCGTAAGACTTTGGATGGGTTGA [3d893]	F1*sub RNA substrate (template-directed ligation)	0.758
ATCACTGTCTAAGACACTTTGGATGGGTTGA [3d109]	F1*sub RNA substrate (template-directed ligation)	0.756
TACCTTGTCGTAAGACATTTGGATGGGTTGA [3d539]	F1*sub RNA substrate (template-directed ligation)	0.749
TATCACTGTCGTAGAACTTTGGATGGGTTGA [3d1388]	F1*sub RNA substrate (template-directed ligation)	0.886
TATCACTTGCGTAAGACACTTTGGATGGTTG [3d1702]	F1*sub RNA substrate (template-directed ligation)	0.208
TATCCTTTCGTAAGACATTTGGATGGGTTGA [3d976]	F1*sub RNA substrate (template-directed ligation)	0.787
TATACTTGTCGTAAACCTTTGGATGGGTTGA [3d884]	F1*sub RNA substrate (template-directed ligation)	0.494
TATCACTGTCGTAGACACTTTGGATGGTTGA [3d1395]	F1*sub RNA substrate (template-directed ligation)	0.409
TATACTTGTGTAGACACTTTGGATGGGTTGA [3d830]	F1*sub RNA substrate (template-directed ligation)	0.776
ATCACTGTGTAAGACACTTTGGATGGGTTGA [3d108]	F1*sub RNA substrate (template-directed ligation)	0.823
TATCACTTGTCGTAAGAACTTTGAGGGTTGA [3d2168]	F1*sub RNA substrate (template-directed ligation)	0.0393
ATCACTTGTCGAAGACACTTTGATGGGTTGA [3d192]	F1*sub RNA substrate (template-directed ligation)	0.655
TACACTTGCTAAGACACTTTGGATGGGTTGA [3d602]	F1*sub RNA substrate (template-directed ligation)	0.196
TATCACTTTCGTAAGACACTTTGGATGGGTTA [2d161]	F1*sub RNA substrate (template-directed ligation)	0.751
TATACTTGTCGAGACACTTTGGATGGGTTGA [3d857]	F1*sub RNA substrate (template-directed ligation)	0.704
TATCACTTGTCGTAAGACACTTTGGTGGTTA [3d2273]	F1*sub RNA substrate (template-directed ligation)	0.0182
